Sourced from patent US20230235012A1

molecular target: T1, human CTLA-4, full-length, expressed on transfected Expi293 cells (human, UniProt P16410 36-223); test: flow cytometry, 100 nM, Expi293 cells with human CTLA-4
T1 construct: whole, on cells
T1 sequence (P16410 36-223): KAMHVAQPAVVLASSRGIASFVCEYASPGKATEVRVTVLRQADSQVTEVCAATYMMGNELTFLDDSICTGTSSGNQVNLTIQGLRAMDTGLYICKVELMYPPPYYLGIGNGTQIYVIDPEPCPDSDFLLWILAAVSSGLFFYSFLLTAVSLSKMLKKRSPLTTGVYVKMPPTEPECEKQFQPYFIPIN
parameter-measured: MFI ratio to WT (ΔWT)

Task: Any idea what its MFI ratio to WT (ΔWT) is? The binder is variant ICOSL IgV-Fc fusion N52S/N57M/Q100S (Fc fusion) DTQEKEVRAMVGSDVELSCACPEGSRFDLNDVYVYWQTSESKTVVTYHIPQSSSLEMVDSRYRNRALMSPAGMLRGDFSLRLFNVTPQDEQKFHCLVLSSSLGFQEVLSVEVTLHVAANFSVGSGGGGSEPKSSDKTHTCPPCPAPEAEGAPSVFLFPPKPKDTLMISRTPEVTCVVVDVSHEDPEVKFNWYVDGVEVHNAKTKPREEQYNSTYRVVSVLTVLHQDWLNGKEYKCKVSNKALPAPIEKTISKAKGQPREPQVYTLPPSREEMTKNQVSLTCLVKGFYPSDIAVEWESNGQPENNYKTTPPVLDSDGSFFLYSKLTVDKSRWQQGNVFSCSVMHEALHNHYTQKSLSLSPG
Result: 0.69 fold
